# TARGET_OR_TEST_SYSTEM: human recombinant adrenergic α2B receptor (Homo sapiens, UniProt P18089)
# Construct: expressed in transfected cells; host or cells: CHO-K1
# Sequence (P18089 whole entry): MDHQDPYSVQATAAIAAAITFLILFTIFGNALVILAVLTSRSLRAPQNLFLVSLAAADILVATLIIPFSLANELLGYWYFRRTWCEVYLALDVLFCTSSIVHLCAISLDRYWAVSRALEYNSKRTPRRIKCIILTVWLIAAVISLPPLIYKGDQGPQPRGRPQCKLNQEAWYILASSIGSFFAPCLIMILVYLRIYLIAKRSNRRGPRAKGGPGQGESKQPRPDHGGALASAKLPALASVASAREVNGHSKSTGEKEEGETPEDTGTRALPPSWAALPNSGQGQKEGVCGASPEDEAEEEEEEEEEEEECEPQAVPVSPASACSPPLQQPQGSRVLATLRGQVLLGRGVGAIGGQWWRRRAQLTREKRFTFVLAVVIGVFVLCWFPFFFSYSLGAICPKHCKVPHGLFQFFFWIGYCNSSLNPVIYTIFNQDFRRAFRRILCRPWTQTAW
# PROCEDURE_DETAILS: Radioligand binding, adrenergic α2B receptor ([3H]Rauwolscine)
# ASSAY_CONTEXT: 0.1 μM compound, CHO-K1 cells, read-out: Percentage inhibition of ligand binding, Adrenergic α2B
OBSERVATION_TYPE: inhibition at 0.1 µM (%)

• CC(=O)Nc1ccc(-c2ccc(-n3c4c(c5cc(C)ccc53)CN(C)CC4)nc2)cn1 = 59
• Cc1ccc2c(c1)c1c(n2-c2cnc(C)c3ccccc23)CCN(C)C1 = 3
• Cc1ccc2c(c1)c1c(n2-c2cccc(-c3ccc4[nH]cnc4c3)c2)CCN(C)C1 = 3
• Cc1ccc2c(c1)c1c(n2-c2ccccc2-c2ccc(O)nc2)CCN(C)C1 = 27
• Cc1ccc2c(c1)c1c(n2-c2ccccc2-c2cnccc2C)CCN(C)C1 = 56
• Cc1ccc2c(c1)c1c(n2-c2cccc(-c3ccc(C)s3)c2)CCN(C)C1 = 1

(P) Cc1ccc2c(c1)c1c(n2-c2cccc(-c3ccc4c(ccn4C)c3)c2)CCN(C)C1
(Q) Cc1cc(C)c2c(c1)c1c(n2-c2cccc3ncccc23)CCN(C)C1
input: Returns the identifier with the smallest measured inhibition at 0.1 µM among P and Q . Kindly state the label of the option you pick.
output: Q
(Q: 6%, P: 15%)
